tested on: NCI-H460; test: NCI tumour cell line growth inhibition, 48 h
Active and inactive are the calls of the source. Cut-off read from the data, not from the text of the source: active = GI50 up to about 1.1 µM and inactive = higher.
Outcome (select one): class 1 = active, class 0 = inactive

Call for entry COC(=O)C1=C(C)NC(C)=C(C(=O)OC)C1c1nc2sccn2c1[N+](=O)[O-] : class 0

Dear all, I need the recorded test outcome for Nc1ccc(S(=O)(=O)Nc2ccc(Nc3c4ccccc4nc4ccccc34)cc2)cc1 , thank you. class 1

Hi team, can someone confirm the assay call for COc1ccc(C(c2c(O)c3ccccc3n(C)c2=O)c2c(O)c3ccccc3n(C)c2=O)cc1 ? class 0

Fill in: this test's call for CCOc1ccc(/N=N/C2C(=O)N(C(=O)CC(=O)Nc3ccc(C)cc3)N=C2C)cc1 (centres undefined) is ___ class 0

Now for a further molecule.
Any idea what this test logged for COc1c(C)cc2c(c1O)C1NC(C2)[C@H](O)N2C3COC(=O)[C@@]4(CS[C@@H](c5c(OC(C)=O)c(C)c6c(c53)OCO6)C12)NCCC1=C4NC2C=CC=CC12 (some centres undefined) ? class 1

###

test system: OVCAR-3; experiment: NCI tumour cell line growth inhibition, 48 h
Active and inactive are the calls of the source. Rule as the data show it: active = GI50 up to about 1.1 µM and inactive = higher.
Entry note: the call must match one of active, inactive

How did this test come out for O=C(Nc1ccc(Cl)cc1)c1cc([N+](=O)[O-])ccc1O ? inactive

Please examine the following record next.
What classification did O=C(OCc1ccccc1)N(CCCCN(CCCNCc1ccccc1)C(=O)OCc1ccccc1)CCCNCc1ccccc1 end up with in this test? inactive

###

Measured GI50, listed per entry.
tested on: DU-145; assay: NCI tumour cell line growth inhibition, 48 h
The source made the active and inactive calls. No stated cut-off is given here; in the data, active = GI50 up to about 1.1 µM and inactive = higher.

Here are 3 compounds together with their reported answers.
State its GI50: O=C1/C(=C/c2ccc(Cl)cc2)CSc2ccccc21 38.2 µM (inactive)

Please report the measured GI50 for CCOC(=O)C(C(=O)OCC)C(NC(=O)Nc1cc(C(F)(F)F)ccc1OC)(C(F)(F)F)C(F)(F)F 40.3 µM (inactive)

Name the recorded GI50 of the item O=C1c2ccccc2C(C2c3ccccc3C(=O)c3cc(Br)ccc32)c2ccc(Br)cc21 (stereo not given) in your answer. > 100 µM (inactive)

Others:
Retrieve GI50 measured for CCN(CC)P1(=S)Oc2ccc3ccccc3c2-c2c(ccc3ccccc23)O1 and print it. > 100 µM (inactive)

Fill in reported GI50 for this entry: CC(C)C(/N=C/c1ccccc1O)C(=O)O (stereo not given) > 100 µM (inactive)

Supply GI50 value. Item: Cc1ccc(NC(=O)c2cccc(OP(=O)(Nc3ccc(C)cc3)Nc3ccc(C)cc3)c2)cc1 53.3 µM (inactive)

###

system: KM12; test: NCI tumour cell line growth inhibition, 48 h
Activity calls are given as the source filed them. No stated cut-off is given here; in the data, active = GI50 up to about 1.1 µM and inactive = higher.
# valid calls are active, inactive; nothing else

Recorded results for 5 molecules are shown here.
For this molecule, state the assay outcome: Cn1c2ccccc2n2c3nc4ccccc4nc3c(C#N)c12 inactive

Hi, do you know how S=C(N/N=C\C=N/NC(=S)N1CCCCCC1)N1CCCCCC1 came out in this test? inactive

Tell me the assay call for COc1cc(/C=C/C(=O)CC(=O)/C=C/c2cc(OC)c(O)c(OC)c2)cc(OC)c1O please. inactive

Test call, this molecule: NC1=NC(NCC2(CO)CCC2)=CC(OCC2(CO)CCC2)N1 (configuration not stated) inactive

Could you please tell me the result logged for CN(C(=O)Cc1ccc(Cl)c(Cl)c1)[C@H]1CCCC[C@@H]1[N+]1(C)CCCC1 in this assay? inactive

Kindly consider the entry below.
Please indicate how the test categorized CCC(=O)CCC1=Nc2nnc(CCCCc3nnc4n3C(=O)C(CCC(=O)CC)=N4)n2C1=O . inactive

Origin of values: ChEMBL document CHEMBL1201862
